# Test system: Pichia kudriavzevii
# EXPERIMENT_DESCRIPTION: Antifungal activity against Candida krusei GIM2.1 assessed as inhibition of fungal growth by NCCLS protocol based method
# Assay type: functional
MEASURED_ATTRIBUTE: MIC

>  <COMPOUND>
Fc1cccc(-c2ccc(C3=NC(Cn4cncn4)(c4ccccc4)CO3)cc2)c1 (stereo unspecified)

>  <RECORDED_MEASUREMENT>
< 0.125 µg/mL

$$$$
>  <COMPOUND>
Fc1ccc(C2(Cn3cncn3)COC(c3ccc(-c4cccc(F)c4)cc3)=N2)cc1 (stereo unspecified)

>  <RECORDED_MEASUREMENT>
0.25 µg/mL

$$$$
>  <COMPOUND>
CCC(C)n1ncn(-c2ccc(N3CCN(c4ccc(OCC5COC(Cn6cncn6)(c6ccc(Cl)cc6Cl)O5)cc4)CC3)cc2)c1=O (stereo unspecified) [ITRACONAZOLE]

>  <RECORDED_MEASUREMENT>
< 0.125 µg/mL

$$$$
>  <COMPOUND>
Clc1cccc(-c2ccc(C3=NC(Cn4cncn4)(c4ccccc4)CO3)cc2)c1 (stereo unspecified)

>  <RECORDED_MEASUREMENT>
> 64 µg/mL

$$$$
>  <COMPOUND>
Clc1ccc(-c2ccc(C3=NC(Cn4cncn4)(c4ccccc4)CO3)cc2)cc1 (stereo unspecified)

>  <RECORDED_MEASUREMENT>
> 64 µg/mL

$$$$
>  <COMPOUND>
Fc1cc(C2=NC(Cn3cncn3)(c3ccccc3)CO2)ccc1-c1ccccc1 (stereo unspecified)

>  <RECORDED_MEASUREMENT>
0.5 µg/mL

$$$$

----------
# Test system: Pichia kudriavzevii
# EXPERIMENT_DESCRIPTION: Antifungal activity against Candida krusei GIM2.1 assessed as inhibition of fungal growth by NCCLS protocol based method
# Format: functional
MEASURED_ATTRIBUTE: MIC

>  <COMPOUND>
Fc1ccccc1-c1ccc(C2=NC(Cn3cncn3)(c3cccc(Cl)c3)CO2)cc1 (stereo not given)

>  <RECORDED_MEASUREMENT>
> 64 µg/mL

$$$$
>  <COMPOUND>
Fc1cccc(-c2ccc(C3=NC(Cn4cncn4)(c4cccc(F)c4)CO3)cc2)c1 (stereo not given)

>  <RECORDED_MEASUREMENT>
> 64 µg/mL

$$$$
>  <COMPOUND>
FC(F)(F)Oc1ccc(-c2ccc(C3=NC(Cn4cncn4)(c4ccccc4)CO3)cc2)cc1 (stereo not given)

>  <RECORDED_MEASUREMENT>
> 64 µg/mL

$$$$
>  <COMPOUND>
Fc1cc(F)cc(C2(Cn3cncn3)COC(c3ccc(-c4ccccc4F)cc3)=N2)c1 (stereo not given)

>  <RECORDED_MEASUREMENT>
> 64 µg/mL

$$$$
>  <COMPOUND>
Fc1ccc(C2(Cn3cncn3)COC(c3ccc(-c4ccccc4F)cc3)=N2)cc1 (stereo not given)

>  <RECORDED_MEASUREMENT>
0.25 µg/mL

$$$$

----------
# MIC per entry
# Test system: Candida tropicalis
# EXPERIMENT_DESCRIPTION: Antifungal activity against Candida tropicalis GIM2.183 assessed as inhibition of fungal growth by NCCLS protocol based method
# Type: functional
MEASURED_ATTRIBUTE: MIC

>  <MOLECULE>
Clc1cccc(-c2ccc(C3=NC(Cn4cncn4)(c4ccccc4)CO3)cc2)c1 (stereo unspecified)

>  <MEASURED_ATTRIBUTE>
MIC

>  <RECORDED_MEASUREMENT>
> 16 µg/mL

$$$$
>  <MOLECULE>
c1ccc(-c2ccc(C3=NC(Cn4ccnc4)(c4ccccc4)CO3)cc2)cc1 (stereo unspecified)

>  <MEASURED_ATTRIBUTE>
MIC

>  <RECORDED_MEASUREMENT>
< 0.125 µg/mL

$$$$
>  <MOLECULE>
c1ccc(-c2ccc(C3=NC(Cn4cnnn4)(c4ccccc4)CO3)cc2)cc1 (stereo unspecified)

>  <MEASURED_ATTRIBUTE>
MIC

>  <RECORDED_MEASUREMENT>
> 16 µg/mL

$$$$
>  <MOLECULE>
Fc1ccccc1-c1ccc(C2=NC(Cn3cncn3)(c3cccc(Cl)c3)CO2)cc1 (stereo unspecified)

>  <MEASURED_ATTRIBUTE>
MIC

>  <RECORDED_MEASUREMENT>
> 16 µg/mL

$$$$
>  <MOLECULE>
Fc1cc(F)cc(C2(Cn3cncn3)COC(c3ccc(-c4ccccc4F)cc3)=N2)c1 (stereo unspecified)

>  <MEASURED_ATTRIBUTE>
MIC

>  <RECORDED_MEASUREMENT>
> 16 µg/mL

$$$$
>  <MOLECULE>
Clc1ccc(-c2ccc(C3=NC(Cn4cncn4)(c4ccccc4)CO3)cc2)cc1 (stereo unspecified)

>  <MEASURED_ATTRIBUTE>
MIC

>  <RECORDED_MEASUREMENT>
> 16 µg/mL

$$$$
